Here the recorded efflux ratio at 120 min, 5 μM is given for each entry.
Test system: MDR1 (P-gp)
methodSummary: Blood-brain-barrier (BBB) penetration potential via MDCK-MDR1 permeability assay
statedConditions: dog, MDCK-MDR1, pH 7.4, MDCK-MDR1: Efflux

# annotated cases, reported efflux ratio at 120 min, 5 μM shown
molecule="CN(c1ccc(-c2cc3ccncc3cc2O)nn1)[C@H]1C[C@@H]2CC(F)(F)[C@H](C1)N2 [Compound 125B]" testvalue=3
molecule="CN(c1ccc(-c2cc3ccncc3cc2O)nn1)[C@@H]1C[C@H]2CC(F)(F)[C@@H](C1)N2 [Compound 125A]" testvalue=3

From here, focus on the item given below.
Request: Look up efflux ratio at 120 min, 5 μM with MDR1 (P-gp) for this molecule: CN(c1ccc(-c2cc3cnccc3cc2O)nn1)[C@@H]1C[C@H]2CC(F)(F)[C@@H](C1)N2 [Compound 126A]
Result: 3

###

Tested on: MDR1-MDCK cell monolayers
statedConditions: dog, MDCK-MDR1, 120 min, 5 μM, pH 7.4
Reported MDCK-MDR1: % Recov A-B values for the following compounds.
Report as a plain number; the unit % is understood.

compound="CCc1cn(-c2ccc(-c3ccc(N(C)[C@H]4C[C@@H]5CC(F)(F)[C@H](C4)N5)nn3)c(O)c2)cn1 [Compound 18B]" testvalue=55
compound="Cn1cnc2cc(-c3ccc(N(C4CC4)[C@@H]4C[C@H]5CC[C@H](N5)[C@@H]4F)nn3)c(O)cc2c1=O [Compound 56A]" testvalue=83
compound="CN(c1ccc(-c2cc(C#N)ccc2O)nn1)[C@@H]1C[C@H]2CC[C@H](N2)[C@@H]1F (single isomer, unassigned) [Compound 70A]" testvalue=86
compound="CNC(=O)c1cc(O)c(-c2ccc(N(C)[C@@H]3C[C@H]4CC[C@@H]([C@@H]3F)N4C)nn2)cc1F (single isomer, unassigned) [Compound 96A]" testvalue=100
compound="CN(c1ccc(-c2cc3cccnc3cc2O)nn1)[C@H]1C[C@@H]2CC(F)(F)[C@H](C1)N2 [Compound 45B]" testvalue=95

Request: Request the reported MDCK-MDR1: % Recov A-B associated with CN(c1ccc(-c2cc(C#N)ccc2O)nn1)[C@H]1C[C@@H]2CC[C@@H](N2)[C@H]1F (single isomer, unassigned) [Compound 70B]
Result: 95

###

Tested on: MDR1-MDCK cell monolayers
statedConditions: dog, MDCK-MDR1, 120 min, 5 μM, pH 7.4
Please respond with Y when measured MDCK-MDR1: % Recov B-A is strictly beneath 90%, and with N in all other cases.

compound="CC(=O)N(C)c1ccc(-c2ccc(N(C)[C@@H]3C[C@H]4CC[C@H](N4)[C@@H]3F)nn2)c(O)c1 [Compound 35A]" assignedcategory=N
compound="CCc1cn(-c2ccc(-c3ccc(N(C)[C@H]4C[C@@H]5CC(F)(F)[C@H](C4)N5)nn3)c(O)c2)cn1 [Compound 18B]" assignedcategory=Y
compound="CN(c1ccc(-c2cc3occc(=O)c3cc2O)nn1)[C@H]1C[C@@H]2CC[C@H]([C@H]1F)N2C (single isomer, unassigned) [Compound 94B]" assignedcategory=Y

Request: In the record for CN(c1ccc(-c2cn3c(=O)ccnc3cc2O)nn1)[C@H]1C[C@@H]2CC[C@@H](N2)[C@H]1F (single isomer, unassigned) [Compound 82B] , is MDCK-MDR1: % Recov B-A less than 90%?
Result: N

Request: Check if MDCK-MDR1: % Recov B-A falls below 90% for CN(c1ccc(-c2cc3ncn(CC(F)(F)F)c(=O)c3cc2O)nn1)[C@H]1C[C@@H]2CC(F)(F)[C@H](C1)N2C (single isomer, unassigned) [Compound 110B] .
Result: N

Request: Problem: For the compound CN(c1ccc(-c2ccccc2O)nn1)[C@H]1C[C@@H]2CC[C@@H](N2)[C@H]1F (single isomer, unassigned) [Compound 119B] , is MDCK-MDR1: % Recov B-A under 90%?
Result: N

Request: Field: below-cutoff. Rule: recorded MDCK-MDR1: % Recov B-A strictly less than 90%. Subject: CN(c1ccc(-c2cc3cccnc3cc2O)nn1)[C@H]1C[C@@H]2CC(F)(F)[C@H](C1)N2 [Compound 45B]
Result: N

Request: Find out if reported MDCK-MDR1: % Recov B-A for CN(c1ccc(-c2ccc(-n3ccnc3)cc2O)nn1)[C@H]1C[C@@H]2CC(F)(F)[C@H](C1)N2 [Compound 13B] is less than 90%
Result: N

Request: Does the reported MDCK-MDR1: % Recov B-A of Cc1nc2cc(-c3ccc(N(C)[C@@H]4C[C@H]5CC[C@@H]([C@@H]4F)N5C)nn3)c(O)cc2c(=O)n1C [Compound 105A] stay below 90%?
Result: N

Request: Take the compound CN(c1ccc(-c2cc3oc(C(=O)N4CCC4)cc3cc2O)nn1)[C@@H]1C[C@H]2CC[C@@H]([C@@H]1F)N2C [Compound 107A] and say whether its MDCK-MDR1: % Recov B-A is less than 90%.
Result: Y

Request: Answer whether the compound CN(C)C(=O)c1cc(O)c(-c2ccc(N(C)[C@H]3C[C@@H]4CC[C@H]([C@H]3F)N4C)nn2)cc1F (single isomer, unassigned) [Compound 104B] has MDCK-MDR1: % Recov B-A strictly less than 90%
Result: N

Request: Confirm or reject: MDCK-MDR1: % Recov B-A of CN(C)C(=O)c1cc(O)c(-c2ccc(N(C)[C@@H]3C[C@H]4CC[C@H](N4)[C@@H]3F)nn2)cc1F (single isomer, unassigned) [Compound 53A] lies strictly below 90%
Result: N
